Value source: PubChem BioAssay (NCI)

test system: SF-539 CNS; experiment: NCI tumour cell line growth inhibition, 48 h
Recorded measurements of TGI, one per entry

Some compounds with known TGI results, for comparison:
c1csc(-c2cscc2-c2ccsc2)c1 | > 93.5 µM
C=C1C(=O)O[C@H]2C[C@@H](C)[C@@H]3CC(=O)OC[C@@]3(C)CC12 (stereo not given in full) | 48 µM
C[C@@]12C=CC3C/C(=N\C(N)=S)C=C(CCCC4OCCO4)[C@]3(CC1)C2 (stereo not given in full) | 31.7 µM
C/C(=N\N)C(CN(C)C)C(c1ccccc1)c1c(O)c2ccccc2oc1=O (stereo not given) | > 100 µM
N=C(N)c1nn(C2OC(CO)C(O)C2O)c2nc[nH]c(=O)c12 (stereo not given) | 1.75 µM

Input line: So what's the measured TGI for this one? `CN(C)c1ccc(-c2c(C#N)c(N)[nH]c(=S)c2C#N)cc1`
Output line: > 100 µM

Input line: So what's the measured TGI for this one? `NC(=O)[C@H]1CCN(c2ncnc(N)c2F)C[C@@H]1N1CCC[C@@H](Nc2cc(Cl)cc(C(F)(F)F)c2)C1=O`
Output line: 33.2 µM

Input line: So what's the measured TGI for this one? `O=C(O)CS(=O)(=O)C(c1ccccc1)c1ccccc1`
Output line: > 100 µM

Input line: So what's the measured TGI for this one? `CN(C)c1ccc2c(NCCCCCCNc3ccnc4cc(N(C)C)ccc34)ccnc2c1`
Output line: 45.2 µM

Input line: So what's the measured TGI for this one? `Fc1cc(C2=C[C@H](c3ccc(Cl)cc3)NC(=S)N2)c(Cl)cc1Cl`
Output line: > 100 µM

====

tested on: SW-620 colon; experiment: NCI tumour cell line growth inhibition, 48 h; in the data active means GI50 below about 0.43 µM; inactive means the rest
Where a SMILES comes first, the peptide text is derived from it. [ ]: non-standard residue; d: D form. Phe(F5) = N[CH](Cc1c(F)c(F)c(F)c(F)c1F)C(=O)O
Could you please pick one outcome from this set? label 1 for active, label 0 for inactive

Input line: Hi, do you know how `COc1ccc(C(=O)/C=C/c2ccc(Cl)cc2)cc1S(=O)(=O)Nc1c(N)nc(SC)[nH]c1=O` came out in this test?
Output line: label 0

Input line: Hi, do you know how `CC[C@](C)(O)C(=O)O[C@H]1C(=O)O[C@@H]2C[C@H]3C(C)=CC(=O)[C@@H](O)[C@]3(C)[C@H]3[C@@]4(O)OC[C@]32[C@@H]1[C@@H](C)[C@H]4O` came out in this test?
Output line: label 1

Input line: Hi, do you know how COC(=O)C(CC(C)C)NC(=O)C(Cc1cnc[nH]1)NC(=O)CNC(=O)C(NC(=O)C(C)NC(=O)C(Cc1c[nH]c2ccccc12)NC(=O)C(CCC(=O)O)NC(=O)C(N)Cc1c(F)c(F)c(F)c(F)c1F)C(C)C (configuration not stated) (H-[Phe(F5)]EWAVGHL-OMe; configuration not given here) came out in this test?
Output line: label 0

Input line: Hi, do you know how `NC(=O)[C@H]1CCN(c2ncnc(N)c2F)C[C@@H]1N1CCC[C@@H](Nc2cc(Cl)cc(C(F)(F)F)c2)C1=O` came out in this test?
Output line: label 0

Input line: Hi, do you know how `c1ccc2nc(Cn3c[n+](Cc4ccc5ccccc5n4)c4ccccc43)ccc2c1` came out in this test?
Output line: label 0

Input line: Hi, do you know how `Fc1ccc2[nH]cc(Cc3c[nH]c4ccc(F)cc34)c2c1` came out in this test?
Output line: label 0

Input line: Hi, do you know how `COc1ccc(-c2ccc(-c3ccc(C(=N)N)nc3)s2)cc1` came out in this test?
Output line: label 0

Input line: Hi, do you know how `CSc1nnc(CCSc2ccnc3c(C(F)(F)F)cccc23)o1` came out in this test?
Output line: label 0

Input line: Hi, do you know how `N#Cc1ncc(/N=C/c2ccc(N(CCCl)CCCl)cc2)s1` came out in this test?
Output line: label 0

Input line: Hi, do you know how `CCN=C1C=CC(=C(c2ccc(N(C)C)cc2)c2ccc(N(C)C)cc2)c2ccccc21` came out in this test?
Output line: label 1

Input line: Hi, do you know how COc1ccc2c(c1)CCC1C2CCC2(C)C1CCC2(O)CNC(=O)CCCCC1CCSS1 (configuration not stated) came out in this test?
Output line: label 0

Input line: Hi, do you know how Cc1ccc2[nH]c(C(=O)NN3C(=O)CSC34CCCCC4C)c(-c3ccccc3)c2c1 (configuration not stated) came out in this test?
Output line: label 0
